- TEST_SYSTEM: UniProt:P35372
- Sequence (P35372 whole entry): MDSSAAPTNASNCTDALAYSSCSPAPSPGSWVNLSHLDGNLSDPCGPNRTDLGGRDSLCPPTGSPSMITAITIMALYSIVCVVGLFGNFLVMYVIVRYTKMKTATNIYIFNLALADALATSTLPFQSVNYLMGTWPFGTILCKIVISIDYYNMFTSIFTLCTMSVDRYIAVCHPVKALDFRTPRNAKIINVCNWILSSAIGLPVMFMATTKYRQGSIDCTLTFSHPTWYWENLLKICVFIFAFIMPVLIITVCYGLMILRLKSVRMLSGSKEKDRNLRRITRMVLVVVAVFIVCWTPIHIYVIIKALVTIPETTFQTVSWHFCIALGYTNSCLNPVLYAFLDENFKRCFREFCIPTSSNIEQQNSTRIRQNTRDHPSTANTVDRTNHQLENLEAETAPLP
- MEASUREMENT_PROTOCOL: Agonist activity at human MOR expressed in CHO-K1 cells co-expressing G-alpha15 by calcium mobilization assay relative to control
- Type: functional, cell-based
- CONDITION: filed as agonist
QUANTITY_MEASURED: Emax (%)
Give a bare numeral; the unit % is implied.

>>> recorded_value("NC(=O)[C@H]1CCCCN1C(=O)[C@H]1CC(=O)NCCCC[C@@H](NC(=O)[C@@H](N)Cc2ccc(O)cc2)C(=O)NCC(=O)N[C@@H](Cc2ccccc2)C(=O)N1")
99.6
>>> recorded_value("NC(=O)[C@@H]1CCCN1C(=O)[C@H]1CC(=O)NCCCC[C@@H](NC(=O)[C@@H](N)Cc2ccc(O)cc2)C(=O)NCC(=O)N[C@@H](CC2CCCCC2)C(=O)N1")
105
>>> recorded_value("NC(=O)[C@@H]1CCCN1C(=O)[C@H]1CC(=O)NCCCC[C@@H](NC(=O)[C@@H](N)Cc2ccc(O)cc2)C(=O)NCC(=O)N[C@@H](Cc2ccccc2)C(=O)N1")
109
>>> recorded_value("N[C@@H](Cc1ccc(O)cc1)C(=O)N[C@@H]1CCCCNC(=O)C[C@H](C(=O)N2CCC[C@H]2C(=O)O)NC(=O)[C@H](Cc2ccccc2)NC(=O)CNC1=O")
94.8

Q: What value of Emax has been reported for the following compound? `CN1C(=O)CNC(=O)[C@H](NC(=O)[C@@H](N)Cc2ccc(O)cc2)CCCCNC(=O)C[C@H](C(=O)N2CCC[C@H]2C(N)=O)NC(=O)[C@@H]1Cc1ccccc1`
A: 90.7

Q: Emax for `NC(=O)[C@H]1CC(=O)NCCCC[C@@H](NC(=O)[C@@H](N)Cc2ccc(O)cc2)C(=O)NCC(=O)N[C@@H](Cc2ccccc2)C(=O)N1` ?
A: 103

Q: Which measured Emax value corresponds to `NC(=O)[C@@H]1CCCN1C(=O)[C@H]1CC(=O)NCCCC[C@@H](NC(=O)[C@@H](N)Cc2ccc(O)cc2)C(=O)NCC(=O)N[C@@H](CCc2ccccc2)C(=O)N1` ?
A: 99.8

Q: Using the record for `NC(=O)[C@@H]1CCCN1C(=O)[C@H]1CC(=O)NCCCC[C@@H](NC(=O)[C@@H](N)Cc2ccc(O)cc2)C(=O)N2CCC[C@H]2C(=O)N[C@@H](Cc2ccccc2)C(=O)N1` , report its Emax.
A: 83.6

Q: # get_value(readout='Emax', item= `CC1(C)NC(=O)[C@H](NC(=O)[C@@H](N)Cc2ccc(O)cc2)CCCCNC(=O)C[C@H](C(=O)N2CCC[C@H]2C(N)=O)NC(=O)[C@H](Cc2ccccc2)NC1=O` )
A: 100

Q: Consider the compound shown here: `NC(=O)[C@@H]1CCCN1C(=O)[C@H]1CC(=O)NCCCC[C@@H](NC(=O)[C@@H](N)Cc2ccc(O)cc2)C(=O)NCCC(=O)N[C@@H](Cc2ccccc2)C(=O)N1` What is its recorded Emax?
A: 95.9

Q: Given `NC(=O)[C@@H]1CCCN1C(=O)[C@H]1CC(=O)NCCCC[C@@H](NC(=O)[C@@H](N)Cc2ccc(O)cc2)C(=O)NCC(=O)N[C@@H](Cc2ccc(F)cc2)C(=O)N1` , state its recorded Emax.
A: 95.3

###

- TEST_SYSTEM: Delta-type opioid receptor (Homo sapiens, UniProt P41143)
- Sequence (P41143 whole entry): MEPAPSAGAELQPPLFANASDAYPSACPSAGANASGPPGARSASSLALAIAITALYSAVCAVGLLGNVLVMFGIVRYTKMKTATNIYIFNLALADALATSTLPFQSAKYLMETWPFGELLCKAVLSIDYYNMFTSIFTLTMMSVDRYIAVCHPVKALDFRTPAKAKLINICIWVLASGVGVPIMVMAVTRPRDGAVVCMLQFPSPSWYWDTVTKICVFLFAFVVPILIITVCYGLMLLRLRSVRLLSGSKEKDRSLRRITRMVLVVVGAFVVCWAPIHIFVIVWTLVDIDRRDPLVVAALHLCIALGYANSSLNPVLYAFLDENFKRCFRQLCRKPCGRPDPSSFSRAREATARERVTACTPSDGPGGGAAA
- MEASUREMENT_PROTOCOL: Agonist activity at human DOR expressed in CHO-K1 cells co-expressing G-alpha15 by calcium mobilization assay
- Format: functional, cell-based
Recorded EC50 values for a group of compounds are listed next.
Only the number, expressed in nM, is required.

Here's what some known entries look like.
>>> recorded_value("CCCC[C@@H]1NC(=O)[C@H](NC(=O)[C@@H](N)Cc2ccc(O)cc2)CCCCNC(=O)C[C@H](C(=O)N2CCC[C@H]2C(N)=O)NC(=O)[C@H](Cc2ccccc2)NC1=O")
20
>>> recorded_value("N[C@@H](Cc1ccc(O)cc1)C(=O)N[C@@H]1CCCCNC(=O)C[C@H](C(=O)N2CCC[C@H]2C(=O)O)NC(=O)[C@H](Cc2ccccc2)NC(=O)CNC1=O")
3.3
>>> recorded_value("NC(=O)[C@@H]1CCCN1C(=O)[C@H]1CC(=O)NCCCC[C@@H](NC(=O)[C@@H](N)Cc2ccc(O)cc2)C(=O)NCC(=O)N[C@H](Cc2ccccc2)C(=O)N1")
965

# ---- query compound ----
Q: EC50 lookup needed for `NC(=O)[C@H]1CCCN1C(=O)[C@@H]1CC(=O)NCCCC[C@@H](NC(=O)[C@@H](N)Cc2ccc(O)cc2)C(=O)NCC(=O)N[C@@H](Cc2ccccc2)C(=O)N1` , thanks.
A: 2.1

###

- TEST_SYSTEM: Delta-type opioid receptor (Homo sapiens)
- MEASUREMENT_PROTOCOL: Agonist activity at human DOR expressed in CHO-K1 cells co-expressing G-alpha15 by calcium mobilization assay relative to control
- Assay type: functional, cell-based
- CONDITION: filed as agonist
QUANTITY_MEASURED: Emax (%)
Kindly provide the numeric value in % only, without the unit symbol.

>>> recorded_value("CCCC[C@@H]1NC(=O)[C@H](NC(=O)[C@@H](N)Cc2ccc(O)cc2)CCCCNC(=O)C[C@H](C(=O)N2CCC[C@H]2C(N)=O)NC(=O)[C@H](Cc2ccccc2)NC1=O")
83.9
>>> recorded_value("N[C@@H](Cc1ccc(O)cc1)C(=O)N[C@@H]1CCCCNC(=O)C[C@H](C(=O)N2CCC[C@H]2C(=O)O)NC(=O)[C@H](Cc2ccccc2)NC(=O)CNC1=O")
109
>>> recorded_value("NC(=O)[C@@H]1CCCN1C(=O)[C@H]1CC(=O)NCCCC[C@@H](NC(=O)[C@@H](N)Cc2ccc(O)cc2)C(=O)NCC(=O)N(Cc2ccccc2)CC(=O)N1")
88.9
>>> recorded_value("NC(=O)CNC(=O)[C@H]1CC(=O)NCCCC[C@@H](NC(=O)[C@@H](N)Cc2ccc(O)cc2)C(=O)NCC(=O)N[C@@H](Cc2ccccc2)C(=O)N1")
104
>>> recorded_value("NC(=O)[C@@H]1CCCN1C(=O)[C@H]1CC(=O)NCCCC[C@@H](NC(=O)[C@@H](N)Cc2ccc(O)cc2)C(=O)NCC(=O)N[C@@H](Cc2ccc(F)cc2)C(=O)N1")
110

Now examine the next entry.
Q: Recorded Emax for `CN1C(=O)CNC(=O)[C@H](NC(=O)[C@@H](N)Cc2ccc(O)cc2)CCCCNC(=O)C[C@H](C(=O)N2CCC[C@H]2C(N)=O)NC(=O)[C@@H]1Cc1ccccc1` , please?
A: 121

###

- MEASUREMENT_PROTOCOL: Selectivity ratio of ED50 for inhibition of gastrointestinal motility in fasted Kunming mouse model treated subcutaneously to ED50 for antinociceptive activity in Kunming mouse model administered subcutaneously measured for 5 to 15 mins by acetic acid-induced writhing test
- Type: toxicity
- CONDITION: in vivo, route sc, read-out: Ratio ED50
Listed here: items and their measured selectivity ratio.
When you answer, write just the number.

>>> recorded_value("CN1C(=O)CNC(=O)[C@H](NC(=O)[C@@H](N)Cc2ccc(O)cc2)CCCCNC(=O)C[C@@H](C(=O)N2CCC[C@@H]2C(N)=O)NC(=O)[C@@H]1Cc1ccccc1")
13

Turning now to a further compound:
Q: Recorded selectivity ratio of `NC(=O)[C@H]1CCCN1C(=O)[C@@H]1CC(=O)NCCCC[C@@H](NC(=O)[C@@H](N)Cc2ccc(O)cc2)C(=O)NCC(=O)N[C@@H](Cc2ccc(F)cc2)C(=O)N1` , please.
A: 22

###

- TEST_SYSTEM: UniProt:P41145
- Sequence (P41145 whole entry): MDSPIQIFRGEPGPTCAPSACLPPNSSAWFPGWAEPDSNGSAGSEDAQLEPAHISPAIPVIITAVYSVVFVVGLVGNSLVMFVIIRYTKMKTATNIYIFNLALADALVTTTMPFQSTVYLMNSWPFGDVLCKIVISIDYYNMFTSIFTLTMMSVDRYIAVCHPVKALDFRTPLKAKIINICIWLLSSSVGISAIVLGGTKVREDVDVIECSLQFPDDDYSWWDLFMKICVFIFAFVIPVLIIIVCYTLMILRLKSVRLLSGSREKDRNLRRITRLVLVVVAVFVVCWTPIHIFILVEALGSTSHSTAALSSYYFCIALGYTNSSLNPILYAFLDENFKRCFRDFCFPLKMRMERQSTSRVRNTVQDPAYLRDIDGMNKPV
- MEASUREMENT_PROTOCOL: Agonist activity at human KOR expressed in CHO-K1 cells co-expressing G-alpha15 by calcium mobilization assay relative to control
- Type: functional, cell-based
- CONDITION: filed as agonist
QUANTITY_MEASURED: Emax

>>> recorded_value("NC(=O)[C@@H]1CCCN1C(=O)[C@H]1CC(=O)NCCCC[C@@H](NC(=O)[C@@H](N)Cc2ccc(O)cc2)C(=O)NCC(=O)N[C@@H](Cc2ccc(F)cc2)C(=O)N1")
"89.3%"

Q: Report Emax for `NC(=O)[C@@H]1CCCN1C(=O)[C@H]1CC(=O)NCCCC[C@@H](NC(=O)[C@@H](N)Cc2ccc(O)cc2)C(=O)NCC(=O)N[C@@H](Cc2ccccc2)C(=O)N1` please.
A: 103%

Q: May I ask what Emax has been recorded for `NC(=O)[C@@H]1CCCCN1C(=O)[C@H]1CC(=O)NCCCC[C@@H](NC(=O)[C@@H](N)Cc2ccc(O)cc2)C(=O)NCC(=O)N[C@@H](Cc2ccccc2)C(=O)N1` ?
A: 99.5%

Q: Endpoint output: Emax of `NC(=O)CNC(=O)[C@H]1CC(=O)NCCCC[C@@H](NC(=O)[C@@H](N)Cc2ccc(O)cc2)C(=O)NCC(=O)N[C@@H](Cc2ccccc2)C(=O)N1` . Value?
A: 48.4%

Q: Tell me the measured Emax of `NC(=O)[C@H]1CCCCN1C(=O)[C@H]1CC(=O)NCCCC[C@@H](NC(=O)[C@@H](N)Cc2ccc(O)cc2)C(=O)NCC(=O)N[C@@H](Cc2ccccc2)C(=O)N1` , please.
A: 68.7%

Q: I am curious: what Emax value has been reported for `CC1(C)NC(=O)[C@H](NC(=O)[C@@H](N)Cc2ccc(O)cc2)CCCCNC(=O)C[C@H](C(=O)N2CCC[C@H]2C(N)=O)NC(=O)[C@H](Cc2ccccc2)NC1=O` ?
A: 89.2%
